A collection of binders and their measured pKd
# targetOrSystem: T1, human α-CGRP 1-37 (WT) (human, C-terminal amide; N-terminal biotin when captured on the SA chip; 125I-labelled in the radioligand assay)
# T1 construct: also called α-human
# T1 peptide: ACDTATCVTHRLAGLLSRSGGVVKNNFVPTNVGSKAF
# procedureText: Biacore, 37°C, Fab over CGRP on SA chip
pKd: −log10 of the molar value.
endpointLabel: pKd

>  <binder>
G1 variant M2 Fab (Fab, V domains shown, Fab; constant domains as m1) VH: EVQLVESGGGLVQPGGSLRLSCAASGFTFSNYWISWVRQAPGKGLEWVAEIRSESDASATHYAEAVKGRFTISRDNAKNSLYLQMNSLRAEDTAVYYCARYFDYGLAIQNYWGQGTLVTVSS VL: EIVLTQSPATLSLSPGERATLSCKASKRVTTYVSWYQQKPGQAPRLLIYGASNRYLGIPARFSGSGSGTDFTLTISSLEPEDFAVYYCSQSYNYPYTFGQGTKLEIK

>  <measuredValue>
8.52

$$$$
>  <binder>
G1 variant M13 Fab (Fab, V domains shown, Fab; constant domains as m1) VH: EVQLVESGGGLVQPGGSLRLSCAASGFTFSNYWISWVRQAPGKGLEWVAEIRSESDASATHYAEAVKGRFTISRDNAKNSLYLQMNSLRAEDTAVYYCTGYFDYGLAIQNYWGQGTLVTVSS VL: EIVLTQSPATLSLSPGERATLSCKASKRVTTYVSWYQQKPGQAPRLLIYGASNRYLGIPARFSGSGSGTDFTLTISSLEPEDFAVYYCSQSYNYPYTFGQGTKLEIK

>  <measuredValue>
8.94

$$$$
>  <binder>
G1 variant M42 Fab (Fab, V domains shown, Fab; constant domains as m1) VH: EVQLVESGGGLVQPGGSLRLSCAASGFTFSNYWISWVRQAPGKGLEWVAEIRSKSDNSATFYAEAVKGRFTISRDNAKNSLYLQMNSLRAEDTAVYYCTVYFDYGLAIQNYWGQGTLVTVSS VL: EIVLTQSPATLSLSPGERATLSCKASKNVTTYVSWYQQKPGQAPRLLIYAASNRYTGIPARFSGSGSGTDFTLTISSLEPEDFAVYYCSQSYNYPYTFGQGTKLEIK

>  <measuredValue>
8.58

$$$$
